pEC50 values by entry
tested-target: human Farnesoid X receptor ligand-binding domain/Gal4 DNA binding domain chimera (Homo sapiens (Human))
Sequence (Q96RI1 262-486, change not shown): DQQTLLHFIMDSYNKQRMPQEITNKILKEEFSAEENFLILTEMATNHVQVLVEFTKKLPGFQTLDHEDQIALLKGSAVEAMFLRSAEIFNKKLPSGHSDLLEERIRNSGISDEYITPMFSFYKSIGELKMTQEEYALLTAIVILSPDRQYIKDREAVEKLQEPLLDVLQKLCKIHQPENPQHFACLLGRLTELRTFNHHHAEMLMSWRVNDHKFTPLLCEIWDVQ
Sequence (P04386 1-147 partner): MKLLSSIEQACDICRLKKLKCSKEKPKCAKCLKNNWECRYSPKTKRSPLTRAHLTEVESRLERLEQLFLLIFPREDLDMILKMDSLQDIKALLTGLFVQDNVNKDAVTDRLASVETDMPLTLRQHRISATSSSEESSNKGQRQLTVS
assay-remarks: Cell-based assay of FXR activation (FXR-UAS-bla HEK 293T beta-lactamase reporter)
condition-info: cellular FXR beta-lactamase reporter assay, FXR-UAS-bla HEK 293T cells, 16 h; pEC50 = -log EC50
FYI, pEC50 means -log10 of a concentration in mol per litre.

Some solved entries appear below for comparison.
Fc1cc(-c2nn[nH]n2)ccc1N1C[C@@H]2C[C@H]1C[C@H]2OCc1c(-c2c(Cl)cccc2Cl)noc1C1CC1 :: 9.10
O=C(O)c1cc(C2CC3(CCOCC3)C2)c2nc(N3C[C@@H]4C[C@H]3C[C@H]4OCc3c(-c4c(Cl)cccc4Cl)noc3C3CC3)sc2c1 :: 10.00
Cc1cccc(Cl)c1-c1noc(C2CC2)c1CO[C@@H]1C[C@@H]2C[C@H]1CN2c1ccc(C(=O)NS(=O)(=O)C2CCOCC2)cc1 :: 9.80
O=C(O)c1cc(C2CCOCC2)c2nc(N3C(=O)[C@@H]4C[C@H]3C[C@H]4OCc3c(-c4c(Cl)cccc4Cl)noc3C3CC3)sc2c1 :: 8.10
O=C(O)c1cc(F)c2nc(N3C[C@@H]4C[C@H]3C[C@H]4OCc3c(-c4ccccc4C(F)(F)F)noc3C3CC3)sc2c1 :: 8.70
Cc1cccc(C)c1-c1noc(C2CC2)c1CO[C@@H]1C[C@@H]2C[C@H]1CN2c1nc2c(C)cc(C(=O)O)cc2s1 :: 8.40

Record summary for "O=C(O)c1ccc(N2C[C@@H]3C[C@H]2C[C@H]3OCc2c(-c3c(Cl)cccc3Cl)noc2C2(F)CC2)c(F)c1" : reported pEC50 = 9.00

The reported value for "CCCS(=O)(=O)NC(=O)c1ccc(N2C[C@@H]3C[C@H]2C[C@H]3OC(=O)c2c(-c3c(Cl)cccc3Cl)noc2C2CC2)cc1" in terms of pEC50 is 7.90

// sample "O=C(CCc1ccc(N2C[C@@H]3C[C@H]2C[C@H]3OCc2c(-c3c(Cl)cccc3Cl)noc2C2CC2)c(F)c1)NS(=O)(=O)C1CCOCC1" , its pEC50 was 8.60

"O=C(O)c1cc(C2CCC2)c2nc(N3C[C@@H]4C[C@H]3C[C@H]4OCc3c(-c4c(Cl)cccc4Cl)noc3C3CC3)sc2c1" has a reported pEC50 of 9.80
